// data source = PubChem BioAssay

Target: Fibroblast growth factor 2 (Homo sapiens) (UniProt P09038)
Sequence (P09038 whole entry, looked up): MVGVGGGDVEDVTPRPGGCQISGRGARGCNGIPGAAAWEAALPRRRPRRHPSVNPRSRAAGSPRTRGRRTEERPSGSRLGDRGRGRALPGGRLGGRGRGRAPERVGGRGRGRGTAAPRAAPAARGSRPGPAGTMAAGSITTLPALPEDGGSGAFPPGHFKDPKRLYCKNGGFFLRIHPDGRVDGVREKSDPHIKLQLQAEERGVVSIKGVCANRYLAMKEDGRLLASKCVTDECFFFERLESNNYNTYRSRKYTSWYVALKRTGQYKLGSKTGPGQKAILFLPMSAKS
Assay: FGF2 binders on small-molecule microarrays, primary screen, biochemical, small-molecule microarray, 635/667 nm fluorescence (AID 1133)
Conditions: small-molecule microarray binding, FGF2, fluorescence 635/667; higher = more signal
Would you mind labelling by composite z-score? At or over 0.7 is Fulfilled, under is Not fulfilled.

Does composite z-score meet or surpass 0.7 for CCOC(=O)[C@H](CC(C)C)NC(=O)CCC1CC(OC(=O)NCc2cccc3ccccc23)CC2(CCCC(COC(=O)NCCCN3CCCC3=O)O2)O1 (stereo partly specified) ? Fulfilled

Does composite z-score meet or surpass 0.7 for O=C1CCCC(C2=CCCCC2=O)C1 (stereo unspecified) ? Not fulfilled

Does composite z-score meet or surpass 0.7 for CC(CCN1CCCCc2nc(C)c(C)cc21)=NO[C@H](C)c1cn([C@H](CO)Cc2ccccc2)nn1 ? Fulfilled

Does composite z-score meet or surpass 0.7 for CO[C@H]1COC(=O)[C@@H]2CCCN2C(=O)CC=C[C@@H](C)[C@H](OC)COC(=O)[C@@H](OCc2ccccc2)C=C[C@@H]1C ? Fulfilled

Does composite z-score meet or surpass 0.7 for O=C1[C@H]2[C@H]3[C@H](O)[C@H](O)CC(=NOCc4ccccc4)[C@@H]3CC[C@H]2C(=O)N1Cc1ccc2c(c1)OCO2 ? Not fulfilled

Does composite z-score meet or surpass 0.7 for COC(=O)[C@@H]1CC[C@H](C)[C@@H](c2ccc(C)cc2)N1C(=O)c1ccc(C=NO[C@@H](C)c2cn([C@H](CO)Cc3ccccc3)nn2)cc1 ? Fulfilled

Does composite z-score meet or surpass 0.7 for COC(=O)CC=C[C@@H](C)[C@@H]1C=C[C@H](O)[C@@H](CO)O1 ? Not fulfilled

Does composite z-score meet or surpass 0.7 for CC(C)=CCCC(C)=CCON=C1C[C@@H](O)[C@@H](O)[C@@H]2[C@@H]3C(=O)N(Cc4ccccc4)C(=O)[C@@H]3CC[C@@H]12 ? Fulfilled

Does composite z-score meet or surpass 0.7 for CO[C@H]1COC(=O)CC=C[C@H](C)[C@@H](OC)COC(=O)[C@@H](C)NC(=O)CC=C[C@@H]1C ? Fulfilled

Does composite z-score meet or surpass 0.7 for CCOC(=O)[C@H](CC(C)C)NC(=O)CCC1CC(OC(=O)NCc2cccc3ccccc23)CC2(CCCC(COC(=O)NCCOC)O2)O1 (stereo partly specified) ? Not fulfilled

Does composite z-score meet or surpass 0.7 for CC(C)(C)N1C(=O)[C@H]2[C@H]3[C@H](O)[C@H](O)CC(=O)[C@@H]3CC[C@H]2C1=O ? Fulfilled

Does composite z-score meet or surpass 0.7 for CON=C[C@@H](C)[C@H](OCc1ccccc1)C(C)C ? Not fulfilled

Does composite z-score meet or surpass 0.7 for O=c1n(Cc2cc3c(cc2Cl)OCO3)c(=O)n2n1CC[C@@H]1C(=NOCc3ccccc3)[C@H]3O[C@H]3[C@@H](O)[C@@H]12 ? Fulfilled

Does composite z-score meet or surpass 0.7 for CON=C[C@@H](NS(=O)(=O)c1ccc(C)cc1)[C@H](C)C=CCC(=O)OC ? Fulfilled

Does composite z-score meet or surpass 0.7 for CCc1cc2c(nc1CC)CCN(CCC(C)=NO[C@H](C)c1cn([C@@H]3COC[C@H]3O)nn1)C2 ? Not fulfilled

Does composite z-score meet or surpass 0.7 for CON=Cc1ccc(C(=O)N2[C@H](c3ccc(C)cc3)[C@@H](C)CC[C@H]2C(=O)OC)cc1 ? Not fulfilled

Does composite z-score meet or surpass 0.7 for CCOC(=O)CCN1C(=O)[C@H]2[C@H]3[C@H](O)[C@H](O)CC(=NOCc4ccccc4)[C@H]3CC[C@H]2C1=O ? Not fulfilled

Does composite z-score meet or surpass 0.7 for O=C1C=C[C@@H](O)[C@@H]2[C@@H]3C(=O)N(C[C@@H]4CCCO4)C(=O)[C@@H]3CC[C@@H]12 ? Not fulfilled

Does composite z-score meet or surpass 0.7 for CC=CC1=C(CO)C(=O)[C@@H]2O[C@@H]2C1=O ? Fulfilled

Does composite z-score meet or surpass 0.7 for O=C1C[C@@H](O)[C@@H](O)[C@@H]2[C@@H]3C(=O)N(c4cccc(Oc5ccccc5)c4)C(=O)[C@@H]3CC[C@H]12 ? Not fulfilled

Does composite z-score meet or surpass 0.7 for C=CC[C@@H]1C=C[C@H](ON=C2[C@H]3CCn4c(=O)n(-c5ccccc5)c(=O)n4[C@H]3[C@H](O)[C@@H]3O[C@H]23)[C@@H](CO)O1 ? Not fulfilled

Does composite z-score meet or surpass 0.7 for C[C@H](ON=C1[C@H]2CCn3c(=O)n(-c4ccccc4)c(=O)n3[C@H]2[C@H](O)[C@@H]2O[C@H]12)c1cn([C@H](CO)Cc2ccccc2)nn1 ? Not fulfilled

Does composite z-score meet or surpass 0.7 for Cc1ccc(S(=O)(=O)N[C@@H]2COC(=O)[C@@H](C)COC(=O)CC=C[C@H]2C)cc1 ? Not fulfilled

Does composite z-score meet or surpass 0.7 for CO[C@H]1COC(=O)[C@H](C)NC(=O)CC=C[C@@H](C)[C@H](OC)COC(=O)[C@@H](OCc2ccccc2)C=C[C@@H]1C ? Not fulfilled

Does composite z-score meet or surpass 0.7 for CCCNC(=O)OC[C@H]1O[C@H](CCON=C(C)CCN2CCCc3nc(C)c(C)cc32)C=C[C@@H]1Oc1ccc(OC)cc1 ? Not fulfilled

Does composite z-score meet or surpass 0.7 for CCOC(=O)[C@H](Cc1ccccc1)NC(=O)CCC1CC(OC(=O)NCc2cccc3ccccc23)CC2(CCCC(COC(=O)NCc3ccccc3)O2)O1 (stereo partly specified) ? Not fulfilled

Does composite z-score meet or surpass 0.7 for C=CC[C@@H]1C=C[C@H](ON=C(C)CCN2CCc3nc(-c4ccccc4)c(-c4ccccc4)cc3C2)[C@@H](CO)O1 ? Not fulfilled

Does composite z-score meet or surpass 0.7 for O=C1CCCC=C1C(O)CCCCBr (stereo unspecified) ? Not fulfilled

Does composite z-score meet or surpass 0.7 for CCCNC(=O)OC[C@H]1O[C@H](CCON=Cc2ccc(C(=O)N3[C@H](c4ccc(C)cc4)[C@@H](C)CC[C@H]3C(=O)OC)cc2)C=C[C@@H]1Oc1ccc(OC)cc1 ? Not fulfilled

Does composite z-score meet or surpass 0.7 for C[C@H]1Cc2c(COc3ccccc3)nc3c(c2CO1)CN(CCOc1ccccc1)CC3 ? Not fulfilled

----------
Assay: modulators of S6 phosphorylation in cells, primary screen, cell-based, A549, cytoblot, luminescence, serum-stimulated (AID 1158);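 further: serum-stimulated A549 lung adenocarcinoma cells; signal is phosphorylated S6 detected by cytoblot immunostaining with HRP secondary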
Settings: A549 phospho-S6 cytoblot, 5 h, higher = more signal
result.type: z-score

I would be grateful if you could share the reported z-score for CCCCC#C[C@@H]1C=C[C@H](Oc2cc(OC)c(OC)c(OC)c2)[C@@H](COC(=O)OCC)O1 . -0.153

I would be grateful if you could share the reported z-score for CC(CCN1CCCc2nc(C)c(C)cc21)=NO[C@@H](C)c1cc(-c2c(C)cc(C)cc2C)no1 . 0.124

I would be grateful if you could share the reported z-score for CO[C@H]1COC(=O)CC=C[C@@H](C)[C@H](NS(=O)(=O)c2ccc(C)cc2)COC(=O)CCC[C@@H]1C . -0.56

I would be grateful if you could share the reported z-score for COC(=O)CC=C[C@@H](C)[C@H](OCc1cccc(-c2ccccc2)c1)C1CCCCC1 . -0.484

I would be grateful if you could share the reported z-score for O=c1n(Cc2cc3c(cc2Cl)OCO3)c(=O)n2n1CC[C@@H]1C(=NOC[C@@H](O)COCc3ccco3)[C@H]3O[C@H]3[C@@H](O)[C@@H]12 . 0.393

I would be grateful if you could share the reported z-score for COC(=O)[C@@H]1CC[C@H](C)[C@@H](c2ccc(C)cc2)N1C(=O)c1ccc(C=NO[C@@H]2O[C@H](COC(C)=O)[C@@H](OC(C)=O)[C@H](OC(C)=O)[C@H]2OC(C)=O)cc1 . 1.02

I would be grateful if you could share the reported z-score for CCO[C@H](c1cc(OC)cc([N+](=O)[O-])c1OC)[C@H](C)C=CCC(=O)OC . -0.168

----------
Target: Neurogenic locus notch homolog protein 2 (Homo sapiens)
Assay: Notch2 binders on small-molecule microarrays, primary screen, biochemical, small-molecule microarray, 635 nm fluorescence, stem cell growth factors (AID 1073)
Details: Notch2 binding, higher = more signal
Provide the reported composite z-score of each item.

I would be grateful if you could share the reported composite z-score for CCCNC(=O)OC[C@H]1O[C@H](CCON=C(C)CCN2CCCc3nc(C)c(C)cc32)C=C[C@@H]1Oc1ccc(OC)cc1 . 0.661

I would be grateful if you could share the reported composite z-score for CCOC(=O)[C@H](CC(C)C)NC(=O)CCC1CC(OC(=O)NCc2ccc3c(c2)OCO3)CC2(CCCC(COC(=O)NCc3cccc(C(F)(F)F)c3)O2)O1 (some centres not stated) . 0.421

I would be grateful if you could share the reported composite z-score for CC(=O)OC[C@H]1O[C@H](CCON=C2[C@H]3CCn4c(=O)n(-c5ccccc5)c(=O)n4[C@H]3[C@H](O)[C@@H]3O[C@H]23)C=C[C@@H]1OC(C)=O . 0.57

I would be grateful if you could share the reported composite z-score for CO[C@H]1COC(=O)[C@@H](C)COC(=O)[C@@H](OCc2ccccc2)C=C[C@@H]1C . -0.663

I would be grateful if you could share the reported composite z-score for COc1cccc([C@H]2Oc3ccc(OC)cc3C(=NOC[C@@H](O)COCc3ccco3)[C@@H]2O)c1 . -1.29

I would be grateful if you could share the reported composite z-score for CC(=O)OC[C@H]1O[C@H](CC=NO[C@H](C)c2cn([C@H](CO)Cc3ccccc3)nn2)C=C[C@@H]1OC(C)=O . 0.911

I would be grateful if you could share the reported composite z-score for C#CCCCON=C1C[C@@H](O)[C@@H](O)[C@@H]2[C@@H]3C(=O)N(C(C)(C)C)C(=O)[C@@H]3CC[C@H]12 . 0.162
